Each record here notes measured pIC50.
Tested on: MDA-MB-231
ASSAY_NOTES: Antiproliferative activity against human MDA-MB-231 cells assessed as inhibition of cell growth incubated for 48 hrs by MTT assay
Format: functional, cell-based
REPORTED_CONDITIONS: MDA-MB-231, 48 h
For clarity, pIC50 is expressed as the negative log10 of concentration in mol/L.

{"columns": ["SMILES_TEXT", "pIC50"],
 "data": [
  ["O=C(c1cc(Cc2n[nH]c(=O)c3ccccc23)ccc1F)N1CCN(C(=O)C2CC2)CC1", 4.60],
  ["COc1cccc(NC(=O)Nc2ccc(CNc3ccccc3C(N)=O)cc2)c1", 4.67],
  ["NC(=O)c1ccccc1OCc1cccc(NC(=O)Nc2cccc(Br)c2)c1", 4.85],
  ["Cc1cccc(NC(=O)Nc2cccc(CNc3ccccc3C(N)=O)c2)c1", 4.61],
  ["NC(=O)c1ccccc1NCc1ccc(NC(=O)Nc2cccc(Cl)c2)cc1", 4.69]
]}

Could you tell me which pIC50 is on file for NC(=O)c1ccccc1NCc1cccc(NC(=O)Nc2cccc(Br)c2)c1 ?
4.86

Next record, please: NC(=O)c1ccccc1OCc1ccc(NC(=O)Nc2cccc(Cl)c2)cc1
4.60

Next record, please: NC(=O)c1ccccc1NCc1ccc(NC(=O)Nc2cccc(Br)c2)cc1
4.84

Next record, please: NC(=O)c1ccccc1NCc1cccc(NC(=O)Nc2cccc(Cl)c2)c1
4.79

Next record, please: NC(=O)c1ccccc1OCc1ccc(NC(=O)Nc2cccc(Br)c2)cc1
4.56

Next record, please: NC(=O)c1ccccc1OCc1cccc(NC(=O)Nc2cccc(Cl)c2)c1
4.67

* * *

Each record here notes measured IC50.
Test system: L02
ASSAY_NOTES: Antiproliferative activity against human L02 cells assessed as inhibition of cell growth […] incubated for 48 hrs by MTT assay
Type: functional, cell-based
REPORTED_CONDITIONS: L02, 48 h
Your answer is read as µM, so omit the unit and give the number.

These solved cases illustrate the format of a correct answer.
{"columns": ["SMILES_TEXT", "RECORDED_VALUE"],
 "data": [
  ["O=C(c1cc(Cc2n[nH]c(=O)c3ccccc23)ccc1F)N1CCN(C(=O)C2CC2)CC1", 60.7],
  ["NC(=O)c1ccccc1OCc1cccc(NC(=O)Nc2cccc(Br)c2)c1", 71.1]
]}

Could you tell me which IC50 is on file for NC(=O)c1ccccc1NCc1cccc(NC(=O)Nc2cccc(Br)c2)c1 ?
100
